The listing below reports pKi for compounds tested on HPK1 (Homo sapiens (Human), UniProt Q92918).
Sequence (Q92918 1-346): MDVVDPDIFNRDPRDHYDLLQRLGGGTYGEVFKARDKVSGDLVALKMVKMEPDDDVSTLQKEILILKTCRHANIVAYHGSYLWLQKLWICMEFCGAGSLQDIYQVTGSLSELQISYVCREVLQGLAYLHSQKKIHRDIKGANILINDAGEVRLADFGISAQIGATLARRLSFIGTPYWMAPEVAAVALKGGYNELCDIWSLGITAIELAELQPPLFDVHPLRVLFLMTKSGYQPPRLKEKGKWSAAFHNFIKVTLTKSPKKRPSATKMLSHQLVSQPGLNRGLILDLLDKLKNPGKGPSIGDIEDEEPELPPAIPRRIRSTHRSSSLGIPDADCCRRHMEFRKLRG
pKi: −log10 of the molar value.

Below are worked cases with known answers.
COc1cccc(F)c1-c1ncc2[nH]nc(-c3ccc(N4CCOCC4)nc3)c2n1; ≥ 7.00
CCN1CCN(c2ccc(-c3n[nH]c4cnc(-c5c(F)cc(CNC)cc5C(F)(F)F)nc34)cc2)CC1; ≥ 7.00
CS(=O)(=O)NCc1ccc(-c2n[nH]c3cnc(-c4c(F)cc5c(c4F)CNCC5)nc23)cc1; ≥ 7.00
CNCc1cc(F)c(-c2ncc3[nH]nc(-c4ccc(C5CCNCC5)cc4)c3n2)c(F)c1; ≥ 7.00
CN1CCN(c2ccc(-c3n[nH]c4cnc(-c5c(F)cc6c(c5F)CNCC6)nc34)cc2)CC1; ≥ 7.00

Qu. Jot down pKi (HPK1 (Homo sapiens (Human), UniProt Q92918)) of `CNC(=O)c1ccc(-c2n[nH]c3cnc(-c4c(F)cccc4OC)nc23)cc1` .
Ans. ≥ 7.00

Qu. Jot down pKi (HPK1 (Homo sapiens (Human), UniProt Q92918)) of `Cc1c2c(cc(F)c1-c1ncc3[nH]nc(-c4ccc(N5CCN(C)CC5)cc4)c3n1)CCNC2` .
Ans. ≥ 7.00

Qu. Jot down pKi (HPK1 (Homo sapiens (Human), UniProt Q92918)) of `CNCc1cc(F)c(-c2ncc3[nH]nc(-c4ccc(N5CCO[C@@H](COC)C5)nc4)c3n2)c(C(F)(F)F)c1` .
Ans. ≥ 7.00
